biological target: PPME (Homo sapiens, UniProt Q9Y570); construct: made in house; host or cells: E. coli BL21(DE3); test: PP2A methylesterase (PPME) inhibition, filter paper method; format: biochemical; conditions: PPME at 85 nM; IC50 higher than the value tested; read-out: IC50
Sequence (Q9Y570 whole entry): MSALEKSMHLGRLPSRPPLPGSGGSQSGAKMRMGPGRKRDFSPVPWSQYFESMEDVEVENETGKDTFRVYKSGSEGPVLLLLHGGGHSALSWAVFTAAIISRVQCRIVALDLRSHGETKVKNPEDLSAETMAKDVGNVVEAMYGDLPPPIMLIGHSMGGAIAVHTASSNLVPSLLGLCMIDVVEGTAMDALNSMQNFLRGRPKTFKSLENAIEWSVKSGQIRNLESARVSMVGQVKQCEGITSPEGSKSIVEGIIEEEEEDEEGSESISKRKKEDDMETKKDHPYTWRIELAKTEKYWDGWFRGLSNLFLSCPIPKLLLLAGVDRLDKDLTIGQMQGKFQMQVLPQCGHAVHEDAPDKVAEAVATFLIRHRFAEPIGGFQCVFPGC
Reported IC50 is given for each of the following molecules.

These solved cases illustrate the format of a correct answer.
{"Molecule": "O=C(/C=C/c1ccc(O)c(O)c1)O[C@@H]1C[C@](O)(C(=O)O)C[C@@H](O)[C@H]1O", "IC50": "> 1000 µM"}
{"Molecule": "O=C(O)/C=C/c1ccc(O)c(O)c1", "IC50": "> 1000 µM"}
{"Molecule": "COc1cc(C=CC(=O)O)ccc1O [HMCA, 4-Hydroxy-3-methoxycinnamic acid]", "IC50": "> 1000 µM"}

Consider O=C(O)[C@]1(O)C[C@@H](O)[C@@H](O)[C@H](O)C1 [QA, D(−)-Quinic acid] . Its measured IC50 is > 10000 µM
